Sourced from paper PMC4774911

assayedTarget: NEK6 (Homo sapiens, UniProt Q9HC98)
Sequence (Q9HC98 whole entry): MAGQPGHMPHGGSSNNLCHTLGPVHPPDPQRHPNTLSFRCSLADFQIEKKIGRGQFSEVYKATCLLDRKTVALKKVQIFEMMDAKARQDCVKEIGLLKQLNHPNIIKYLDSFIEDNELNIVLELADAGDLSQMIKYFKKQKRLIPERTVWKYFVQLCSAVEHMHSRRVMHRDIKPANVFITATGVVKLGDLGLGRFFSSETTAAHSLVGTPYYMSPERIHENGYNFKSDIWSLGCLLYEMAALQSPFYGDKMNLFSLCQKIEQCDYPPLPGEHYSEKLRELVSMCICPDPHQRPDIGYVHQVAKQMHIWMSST
assayMethodText: biochemical
condition: read-out: KDapp
recordedEndpoint: Kd (nM)
Output spec: scalar in nM, unitless text.

So for CN1CCN(c2ccc(Nc3ncc(C#N)c(Nc4ccccc4C(N)=O)n3)cc2)CC1.Cl , the logged Kd turned out to be 160

* * *

I'd be grateful if you could share measured IC50 for these entries.

Reading of IC50 for CN(C)CC(O)COc1ccc(Nc2ncc([N+](=O)[O-])c(Nc3ccccc3O)n2)cc1.O=C(O)C(F)(F)F (centres unmarked) with PRKCB (Homo sapiens, UniProt P05771): > 20000 nM

# value of IC50, PRKCB (Homo sapiens, UniProt P05771), item CN1CCN(c2ccc(Nc3ncc(C#N)c(Nc4ccccc4C(N)=O)n3)cc2)CC1.Cl = 870 nM
